Assay Details: Inhibition of TNF-alpha-induced NF-kappaB p65 nuclear translocation in human A549 cells after 2 hrs by fluorescence assay

Line Notation	IC50
O=C(/C=C/c1cccc(-c2ccc(F)cc2)c1)c1ccc(F)cc1	> 50 µM
COc1cc(/C=C/C(=O)c2cccc(-c3cccc(F)c3)c2)ccc1O	12.9 µM
COc1ccc(/C=C/C(=O)c2cccc(Br)c2)cc1	> 50 µM
Nc1ccc(C(=O)/C=C/c2ccc(O)c(F)c2)cc1-c1ccc(F)cc1	> 50 µM
COc1ccc(/C=C/C(=O)c2cccc(-c3ccc(F)cc3)c2)cc1OC	> 50 µM
COc1cc(/C=C/C(=O)c2ccc(N)c(-c3ccc(F)cc3)c2)ccc1O	6.83 µM

----------
Readings of pIC50 for the listed compounds
Assay Details: Inhibition of TNF-alpha-induced NF-kappaB p65 nuclear translocation in human A549 cells after 2 hrs by fluorescence assay
pIC50: −log10 of the molar value.
Endpoint Name: pIC50

Line Notation	Censoring Operator	Recorded Measurement
COc1cc(/C=C/C(=O)c2ccc(N)c(-c3ccc(F)cc3)c2)cc(Br)c1O	<	4.30
O=C(/C=C/c1ccccc1Br)c1cccc(-c2cccc(F)c2)c1	=	4.86
COc1ccc(/C=C/C(=O)c2ccc(N)c(-c3ccc(F)cc3)c2)cc1OC	<	4.30
COc1ccc(OC)c(/C=C/C(=O)c2ccc(N)c(-c3ccc(OC)c(OC)c3)c2)c1	=	5.50
COc1ccc(/C=C/C(=O)c2cccc(-c3cccc(F)c3)c2)cc1OC	=	4.48
COc1ccc(/C=C/C(=O)c2cccc(-c3cccc(F)c3)c2)cc1O	=	5.02
O=C(/C=C/c1cccc(Br)c1)c1cccc(-c2cccc(F)c2)c1	=	4.95
COc1ccc(/C=C/C(=O)c2ccc(N)c(-c3ccc(F)cc3)c2)cc1	<	4.30
COc1ccccc1/C=C/C(=O)c1cccc(-c2cccc(F)c2)c1	=	4.45
COc1ccc(/C=C/C(=O)c2cccc(Br)c2)cc1OC	<	4.30
COc1ccc(OC)c(/C=C/C(=O)c2ccc(N)c(-c3ccc(F)cc3)c2)c1	=	4.99
COc1cccc(/C=C/C(=O)c2cccc(-c3cccc(F)c3)c2)c1OC	=	4.62
COc1ccc(-c2cc(C(=O)/C=C/c3ccc(F)cc3)ccc2N)cc1OC	=	4.67
COc1ccc(/C=C/C(=O)c2cccc(Br)c2)cc1O	<	4.30
